- ASSAY_OVERVIEW: Human HepG2 cell viability assay in 384 well format
- Assay type: toxicity, cell-based
- Parameters: dose 125 nL, time 70.5 hour; concentration not given beside the values
- MEASUREMENT_PARAMETERS: HepG2 cells, read-out: Inhibition
Measured cytotoxicity at 70.5 h accompanies every entry in the list below.
Dear colleague, please return just the value in %, with no unit written.

In the examples that follow, each entry is paired with its recorded cytotoxicity at 70.5 h.
COMPOUND	NUMERIC_RESULT
Cc1ccc(C(C(=O)NCCN2CCC(CO)CC2)N(C)C)cc1 (configuration not stated)	27.1
O=C(c1ccco1)N1CCc2onc(CN3CCCC3)c2C1	7.25
Cc1cc(-c2cnn(CCNC(=O)CCn3cccn3)c2C2CC2)on1	-3.81
Clc1ccc(C(CNCc2cccnc2)n2cccn2)cc1 (configuration not stated)	24.3
Cc1cc(C(=O)N2CCc3[nH]cnc3C2C(=O)O)c(-c2ccccc2)o1 (configuration not stated)	-3.87

Inquiry: Look up cytotoxicity at 70.5 h: CC(c1nc(-c2ccccc2)no1)N1CC(n2cccn2)C1 (configuration not stated)
Reply text: -4.14

Inquiry: Look up cytotoxicity at 70.5 h: CC(CN1CCOCC1)NCc1nncn1C1CCCCC1 (configuration not stated)
Reply text: -3.01

Inquiry: Look up cytotoxicity at 70.5 h: `COc1ccccc1S(=O)(=O)Nc1cnc(O)cc1C`
Reply text: -10.5

Inquiry: Look up cytotoxicity at 70.5 h: CCC(C)(C)n1nnnc1C(c1cccs1)N1CCc2ccccc2C1 (configuration not stated)
Reply text: 0.836

Inquiry: Look up cytotoxicity at 70.5 h: `Cc1ccc(C)c(CS(=O)(=O)CC(=O)NCCCOC(C)C)c1`
Reply text: -4.92

Inquiry: Look up cytotoxicity at 70.5 h: CCC1(CO)CCCN(C(=O)c2ccc(N3CCN(C)CC3)cc2)C1 (configuration not stated)
Reply text: -4.46

Inquiry: Look up cytotoxicity at 70.5 h: `CS(=O)(=O)N1CCN(C(=O)CCn2cccn2)CC1`
Reply text: -6.72

* * *

- ASSAY_OVERVIEW: Human HepG2 cell viability assay in 384 well format
- Format: toxicity, cell-based
- Parameters: dose 125 nL, time 70.5 hour; concentration not given beside the values
- MEASUREMENT_PARAMETERS: HepG2 cells, read-out: Inhibition
Measured cytotoxicity at 70.5 h accompanies every entry in the list below.
Dear colleague, please return just the value in %, with no unit written.

In the examples that follow, each entry is paired with its recorded cytotoxicity at 70.5 h.
MOLECULE	RESULT_UNIT	NUMERIC_RESULT
O=C(Nc1cccnc1-n1cccn1)N1CCCC(N2CCCC2)C1 (centres undefined)	%	-4.62
O=C(CCc1nccs1)N1CCN(c2nccs2)CC1	%	-7.6
CN(C(=O)NCCCN1CCCC1)C1CCN(c2ccccc2)C1=O (centres undefined)	%	4.81
CSCC(C)(O)CNc1ncccc1I (centres undefined)	%	7.7
COc1cc(NC(=O)CCn2nc(-c3cccs3)oc2=O)cc(OC)c1	%	-7.55

Inquiry: Look up cytotoxicity at 70.5 h: `CCN(Cc1cnn(C)c1)C[C@H]1CC[C@@H](Cc2cccc(CN)c2)O1`
Reply text: 3.32

Inquiry: Look up cytotoxicity at 70.5 h: `Cc1ccc2nc(C)c(C)c(C(=O)N3CCC4(CCO4)CC3)c2c1`
Reply text: -5.61

Inquiry: Look up cytotoxicity at 70.5 h: `CN1CCN(C(=O)c2cnsn2)c2cc(F)ccc21`
Reply text: 1.4

Inquiry: Look up cytotoxicity at 70.5 h: `Cc1nc(N2CCCC2)nc2c1CN(C(C)C)CC2`
Reply text: -12.7

Inquiry: Look up cytotoxicity at 70.5 h: `Cc1cc(C2CCC2)nc(N(C)CCc2ccccn2)n1`
Reply text: -5.51

Inquiry: Look up cytotoxicity at 70.5 h: O=C1CC(c2ccncc2)C2(CCN(C(=O)c3cccs3)CC2)N1 (centres undefined)
Reply text: 43.8
